Assay: In vitro cytotoxicity assay, HeLa cells (resazurin cell viability)
Format: cell-based
Conditions: human; HeLa cells, resazurin; read-out: HeLa cytotoxicity of reference drug (printed in the %Viability column with unit μM)
Readout Kind: IC50 (µM)
The reply should be a number in µM, with the unit left off.

Input line: Return value of IC50 for input CC[C@H]1CN2CCc3cc(OC)c(OC)cc3[C@@H]2C[C@@H]1C[C@H]1NCCc2cc(OC)c(OC)cc21 [EMT, emetine, reference compound] , no commentary.
Output line: 0.76

----------
Test system: Trypanosoma brucei brucei 427 trypomastigotes
Experiment: In vitro antitrypanosomal assay (resazurin parasite viability)
Assay type: cell-based
Details: Trypanosoma brucei, T. b. brucei 427 strain; read-out: T. b. brucei IC50 (positive control drug)
Readout Kind: pIC50
pIC50 here is simply -log10 of the concentration when that concentration is written in mol/L.

Input line: For Trypanosoma brucei brucei 427 trypomastigotes, give the measured pIC50 of the entry N=C(N)c1ccc(OCCCCCOc2ccc(C(=N)N)cc2)cc1 [PMD, Pentamidine, reference compound]
Output line: 9.17

----------
Assay: In vitro cytotoxicity assay, HeLa cells (resazurin cell viability)
Format: cell-based
Conditions: human
viability at 20 µM reference

Some compounds with recorded viability at 20 µM:
COc1ccc(C(=O)/C=C/c2cc(C)n(-c3ccc([N+](=O)[O-])cc3)c2C)c(OC)c1 [Compound 16]	> 100%
Cc1cc(/C=C/C(=O)c2ccc(F)cc2)c(C)n1-c1ccc([N+](=O)[O-])cc1 [Compound 14]	99.4%

Input line: Return value of viability at 20 µM for input Cc1cc(/C=C/C(=O)c2cc(Br)ccc2O)c(C)[nH]1 [Compound 10k] , no commentary.
Output line: > 100%

Input line: Return value of viability at 20 µM for input Cc1cc(/C=C/C(=O)c2cc(Cl)ccc2O)c(C)n1-c1cccc(C(F)(F)F)c1 [Compound 18] , no commentary.
Output line: 79.9%

Input line: Return value of viability at 20 µM for input Cc1cc(/C=C/C(=O)c2cc(Br)ccc2O)c(C)n1-c1ccccc1 [Compound 10a] , no commentary.
Output line: > 100%

Input line: Return value of viability at 20 µM for input Cc1cc(/C=C/C(=O)c2cc(Br)ccc2O)c(C)n1-c1ccc(F)cc1 [Compound 10b] , no commentary.
Output line: > 100%

Input line: Return value of viability at 20 µM for input COc1ccc(-n2c(C)cc(/C=C/C(=O)c3cc(Br)ccc3O)c2C)cc1 [Compound 10j] , no commentary.
Output line: > 100%

Input line: Return value of viability at 20 µM for input COc1ccc(C(=O)/C=C/c2cc(C)n(-c3ccc([N+](=O)[O-])cc3)c2C)cc1 [Compound 15] , no commentary.
Output line: 98.9%

----------
Test: In vitro cytotoxicity assay, HeLa cells (resazurin cell viability)
Assay type: cell-based
Settings: human; single concentration 20 µM, duplicates, relative to untreated cells; read-out: HeLa %Viability (residual percentage viability)
Readout Kind: viability at 20 µM

Input line: Return value of viability at 20 µM for input Cc1cc(/C=C/C(=O)c2ccc([N+](=O)[O-])cc2)c(C)n1-c1ccc([N+](=O)[O-])cc1 , no commentary.
Output line: > 100%
